# Target entity: indoleamine 2,3-dioxygenase (IDO) (Homo sapiens, UniProt P14902)
# Sequence (P14902 whole entry): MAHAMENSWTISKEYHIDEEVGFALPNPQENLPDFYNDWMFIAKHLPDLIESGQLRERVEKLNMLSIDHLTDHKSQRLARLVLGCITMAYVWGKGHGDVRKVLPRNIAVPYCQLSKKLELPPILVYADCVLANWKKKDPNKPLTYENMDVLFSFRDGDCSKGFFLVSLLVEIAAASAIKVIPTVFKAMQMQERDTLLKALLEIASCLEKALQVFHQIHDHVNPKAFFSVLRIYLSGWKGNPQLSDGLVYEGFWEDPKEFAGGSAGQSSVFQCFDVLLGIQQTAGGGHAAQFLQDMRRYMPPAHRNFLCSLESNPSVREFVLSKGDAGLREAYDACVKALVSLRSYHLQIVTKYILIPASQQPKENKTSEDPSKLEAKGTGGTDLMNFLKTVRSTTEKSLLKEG
# Experiment description: HeLa cell-based indoleamine 2,3-dioxygenase (IDO) assay (IFNγ-induced kynurenine production, absorbance 480 nm)
# Condition details: HeLa cells, IFNγ 25 ng/mL, 48 hour incubation
Observed property: IC50 (nM)

>  <Compound>
CCC(Nc1nnc(-c2ccc(OC)cc2)o1)[C@H]1CC[C@@H](c2ccnc(F)c2C)CC1 (single isomer, unassigned)

>  <Target entity>
indoleamine 2,3-dioxygenase (IDO) (Homo sapiens, UniProt P14902)

>  <Units symbol>
nM

>  <Recorded result>
26.2

$$$$
>  <Compound>
C[C@@H](c1nnc(-c2ccc(Cl)cc2)[nH]1)[C@H]1CC[C@@H](c2ccnc3ccc(F)cc32)CC1

>  <Target entity>
indoleamine 2,3-dioxygenase (IDO) (Homo sapiens, UniProt P14902)

>  <Units symbol>
nM

>  <Recorded result>
14.8

$$$$
>  <Compound>
CCC(Nc1nnc(-c2ccc(Cl)cc2)o1)[C@H]1CC[C@@H](c2ccnc3ccc(C(F)(F)F)cc32)CC1 (single isomer, unassigned) [Example 58-1]

>  <Target entity>
indoleamine 2,3-dioxygenase (IDO) (Homo sapiens, UniProt P14902)

>  <Units symbol>
nM

>  <Recorded result>
326

$$$$
>  <Compound>
CCC(Nc1nnc(-c2ccc(OC)cc2)o1)C1CCC(c2ccnc3ccc(C(F)(F)F)cc23)CC1 (single isomer, unassigned) [Example 59]

>  <Target entity>
indoleamine 2,3-dioxygenase (IDO) (Homo sapiens, UniProt P14902)

>  <Units symbol>
nM

>  <Recorded result>
4.7

$$$$
>  <Compound>
C[C@@H](c1nnc(-c2ccc(F)c(Cl)c2)[nH]1)[C@H]1CC[C@@H](c2ccnc3ccc(F)cc32)CC1

>  <Target entity>
indoleamine 2,3-dioxygenase (IDO) (Homo sapiens, UniProt P14902)

>  <Units symbol>
nM

>  <Recorded result>
162

$$$$
>  <Compound>
Cc1cnc(-c2nnc(N[C@H](C)[C@H]3CC[C@@H](c4ccnc5ccc(F)cc54)CC3)o2)s1

>  <Target entity>
indoleamine 2,3-dioxygenase (IDO) (Homo sapiens, UniProt P14902)

>  <Units symbol>
nM

>  <Recorded result>
13.3

$$$$

[P] C[C@@H](Nc1nnc(-c2ccc(Cl)cc2)s1)[C@H]1CC[C@@H](c2ccnc3ccc(F)cc32)CC1
[Q] C[C@@H](c1nnc(Nc2ccccc2)[nH]1)[C@H]1CC[C@@H](c2ccnc3ccc(F)cc32)CC1
[R] C[C@@H](Nc1ncc(-c2ccc(Cl)cc2)s1)[C@H]1CC[C@@H](c2ccnc3ccc(F)cc32)CC1
Thanks in advance: please rank these 3 entries by IC50, highest to lowest. Form entry: ranked labels (order as requested). R, Q, P
